EXPERIMENTAL_TARGET: HCMV polymerase (Human cytomegalovirus)
Construct: made in house; host or cells: SF-9 insect cells infected with recombinant baculovirus
ASSAY_REMARKS: HCMV polymerase assay (scintillation proximity assay)
Format: biochemical
MEASUREMENT_CONTEXT: percentage of inhibition at 25 μM concentration in CMV polymerase assay
Procedure: The compounds of the present invention are tested in an polymerase assay to show activity described below, which is indicative of a compound's activity and thus of its use as an anti-viral agent. […]
Binary classification by inhibition at 25 µM, with 30% as an inclusive lower bound for Yes; all other cases are No.

stdin: Evaluate CCSCCNc1nnc(NC(=O)c2c(Cl)cccc2Cl)s1 [compound 292] : inhibition at 25 µM at minimum 30%?
stdout: Yes

stdin: Evaluate CC(C)c1cc(C(C)C)c(C(=O)Nc2nnc(NCc3cccnc3)s2)c(C(C)C)c1 [compound 399] : inhibition at 25 µM at minimum 30%?
stdout: No

stdin: Evaluate CC(=O)NCCNc1nnc(NC(=O)c2cc3ccccc3s2)s1 [compound 412] : inhibition at 25 µM at minimum 30%?
stdout: No

stdin: Evaluate O=C(Nc1nnc(NCCCCc2ccccc2)s1)c1ccc(F)cc1F [compound 197] : inhibition at 25 µM at minimum 30%?
stdout: Yes

stdin: Evaluate COc1ccccc1C(=O)Nc1nnc(NCc2ccc3c(c2)OCO3)s1 [compound 414] : inhibition at 25 µM at minimum 30%?
stdout: No

stdin: Evaluate NS(=O)(=O)c1ccc(CCNc2nnc(NC(=O)c3ccc4c(c3)C(=O)OC4=O)s2)cc1 [compound 15] : inhibition at 25 µM at minimum 30%?
stdout: Yes

stdin: Evaluate N#Cc1ccc(C(=O)Nc2nnc(NCCCNC3CCCCC3)s2)cc1 [compound 127] : inhibition at 25 µM at minimum 30%?
stdout: Yes

----------
EXPERIMENTAL_TARGET: HCMV polymerase (Human cytomegalovirus, UniProt P08546)
Construct: made in house; host or cells: SF-9 insect cells infected with recombinant baculovirus
Sequence (P08546 whole entry): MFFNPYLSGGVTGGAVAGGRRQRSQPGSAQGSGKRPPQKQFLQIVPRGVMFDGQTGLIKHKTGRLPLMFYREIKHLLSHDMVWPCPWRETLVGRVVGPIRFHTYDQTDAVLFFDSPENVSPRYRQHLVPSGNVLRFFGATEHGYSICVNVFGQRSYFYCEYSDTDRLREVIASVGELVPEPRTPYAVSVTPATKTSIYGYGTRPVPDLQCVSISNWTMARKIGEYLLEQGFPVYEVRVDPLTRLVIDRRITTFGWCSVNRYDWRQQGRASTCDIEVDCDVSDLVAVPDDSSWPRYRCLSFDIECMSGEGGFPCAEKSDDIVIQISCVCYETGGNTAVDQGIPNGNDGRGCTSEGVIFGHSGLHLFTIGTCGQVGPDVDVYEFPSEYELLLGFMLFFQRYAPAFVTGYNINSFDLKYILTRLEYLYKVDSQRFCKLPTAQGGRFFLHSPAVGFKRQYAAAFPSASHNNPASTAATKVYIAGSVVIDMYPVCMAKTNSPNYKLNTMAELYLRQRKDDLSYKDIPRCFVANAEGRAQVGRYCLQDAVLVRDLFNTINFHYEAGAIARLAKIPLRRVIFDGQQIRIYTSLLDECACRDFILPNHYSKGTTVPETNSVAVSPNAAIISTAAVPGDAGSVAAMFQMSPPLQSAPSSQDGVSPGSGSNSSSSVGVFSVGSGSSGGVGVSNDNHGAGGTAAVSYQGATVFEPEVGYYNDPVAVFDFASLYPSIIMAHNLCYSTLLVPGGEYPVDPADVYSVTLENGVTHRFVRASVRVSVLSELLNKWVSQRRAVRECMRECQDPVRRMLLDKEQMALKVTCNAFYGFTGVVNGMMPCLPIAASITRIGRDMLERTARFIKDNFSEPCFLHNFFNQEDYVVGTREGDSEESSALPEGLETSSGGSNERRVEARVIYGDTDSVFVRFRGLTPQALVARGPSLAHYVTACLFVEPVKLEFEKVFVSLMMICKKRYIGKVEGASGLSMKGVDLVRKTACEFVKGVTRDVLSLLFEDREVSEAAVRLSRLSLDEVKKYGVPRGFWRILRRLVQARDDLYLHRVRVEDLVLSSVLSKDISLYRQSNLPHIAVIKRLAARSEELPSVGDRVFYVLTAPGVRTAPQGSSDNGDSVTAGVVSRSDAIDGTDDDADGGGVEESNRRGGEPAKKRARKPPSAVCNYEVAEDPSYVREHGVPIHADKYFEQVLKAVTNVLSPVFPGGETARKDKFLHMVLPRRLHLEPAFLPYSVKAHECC
ASSAY_REMARKS: HCMV polymerase assay (scintillation proximity assay)
Format: biochemical
MEASUREMENT_CONTEXT: percentage of inhibition at 25 μM concentration in CMV polymerase assay
Description: The compounds of the present invention are tested in an polymerase assay to show activity described below, which is indicative of a compound's activity and thus of its use as an anti-viral agent. […]
Binary classification by inhibition at 25 µM, with 80% as an inclusive lower bound for Satisfied; all other cases are Not satisfied.

stdin: Evaluate O=C(/C=C/c1ccccc1)Nc1nnc(NCc2ccc(Cl)c(Cl)c2)s1 : inhibition at 25 µM at minimum 80%?
stdout: Not satisfied

stdin: Evaluate O=C(Nc1nnc(NCCc2c[nH]c3ccccc23)s1)c1c(Cl)cccc1Cl : inhibition at 25 µM at minimum 80%?
stdout: Not satisfied

stdin: Evaluate CCCCCCCC/C=C/CCCCCCCC(=O)Nc1nnc(NCCCN2CCN(C)CC2)s1 : inhibition at 25 µM at minimum 80%?
stdout: Satisfied

stdin: Evaluate CCOc1ccc2ccccc2c1C(=O)Nc1nnc(NCCC(=O)OC(C)(C)C)s1 : inhibition at 25 µM at minimum 80%?
stdout: Not satisfied

stdin: Evaluate CCCCCCCC/C=C/CCCCCCCC(=O)Nc1nnc(NCc2ccc(S(N)(=O)=O)cc2)s1 : inhibition at 25 µM at minimum 80%?
stdout: Satisfied

stdin: Evaluate CCCCCCCC/C=C/CCCCCCCC(=O)Nc1nnc(NCCSc2ccccc2)s1 : inhibition at 25 µM at minimum 80%?
stdout: Not satisfied

stdin: Evaluate CCOc1ccc2ccccc2c1C(=O)Nc1nnc(NC2CCN(Cc3ccccc3)CC2)s1 : inhibition at 25 µM at minimum 80%?
stdout: Satisfied

stdin: Evaluate CC(=O)NCCNc1nnc(NC(=O)c2ccc3c(c2)C(=O)OC3=O)s1 : inhibition at 25 µM at minimum 80%?
stdout: Not satisfied

stdin: Evaluate O=C(Nc1nnc(NCC2CCCCC2)s1)c1ccc([N+](=O)[O-])o1 : inhibition at 25 µM at minimum 80%?
stdout: Not satisfied

stdin: Evaluate CC(C)c1cc(C(C)C)c(C(=O)Nc2nnc(NCCc3cccs3)s2)c(C(C)C)c1 : inhibition at 25 µM at minimum 80%?
stdout: Not satisfied

----------
EXPERIMENTAL_TARGET: HCMV polymerase (Human cytomegalovirus)
Construct: made in house; host or cells: SF-9 insect cells infected with recombinant baculovirus
ASSAY_REMARKS: HCMV polymerase assay (scintillation proximity assay)
Assay type: biochemical
MEASUREMENT_CONTEXT: percentage of inhibition at 25 μM concentration in CMV polymerase assay
Binary classification by inhibition at 25 µM, with 30% as an inclusive lower bound for T; all other cases are F.

stdin: Evaluate COc1ccccc1C(=O)Nc1nnc(NCCC(c2ccccc2)c2ccccc2)s1 : inhibition at 25 µM at minimum 30%?
stdout: F

stdin: Evaluate O=C(Nc1nnc(NCCc2c[nH]cn2)s1)c1ccc(I)cc1 : inhibition at 25 µM at minimum 30%?
stdout: F

stdin: Evaluate O=C(Nc1nnc(NCc2ccc(Cl)c(Cl)c2)s1)c1cccc([N+](=O)[O-])c1 : inhibition at 25 µM at minimum 30%?
stdout: F

stdin: Evaluate O=C(/C=C/c1ccccc1)Nc1nnc(NCCc2c[nH]c3ccccc23)s1 : inhibition at 25 µM at minimum 30%?
stdout: T

stdin: Evaluate CCCCCCCC/C=C/CCCCCCCC(=O)Nc1nnc(NCCC(c2ccccc2)c2ccccc2)s1 : inhibition at 25 µM at minimum 30%?
stdout: T

stdin: Evaluate O=C(Nc1nnc(NCc2cccc3ccccc23)s1)c1ccc2c(c1)C(=O)OC2=O : inhibition at 25 µM at minimum 30%?
stdout: T

stdin: Evaluate CCOc1ccc2ccccc2c1C(=O)Nc1nnc(NCCCCc2ccccc2)s1 : inhibition at 25 µM at minimum 30%?
stdout: T

stdin: Evaluate CCOc1ccc2ccccc2c1C(=O)Nc1nnc(NC[C@@H]2CCC3CC2C3(C)C)s1 (stereo partly drawn) : inhibition at 25 µM at minimum 30%?
stdout: T

stdin: Evaluate O=C(Nc1nnc(NCCNc2ccccc2)s1)c1cccc([N+](=O)[O-])c1 : inhibition at 25 µM at minimum 30%?
stdout: T

stdin: Evaluate O=C(Nc1nnc(NCCSc2ccccc2)s1)c1ccc(I)cc1 : inhibition at 25 µM at minimum 30%?
stdout: T

stdin: Evaluate COc1ccccc1C(=O)Nc1nnc(NCC2CCCCC2)s1 : inhibition at 25 µM at minimum 30%?
stdout: T

stdin: Evaluate O=C(Nc1nnc(NCCCNC2CCCCC2)s1)c1ccc(F)cc1F : inhibition at 25 µM at minimum 30%?
stdout: T

stdin: Evaluate O=C(Nc1nnc(NCCCN2CCCC2=O)s1)c1cc2ccccc2s1 : inhibition at 25 µM at minimum 30%?
stdout: T

stdin: Evaluate CCCCCCCC/C=C/CCCCCCCC(=O)Nc1nnc(NCc2ccc(OC)c(OC)c2)s1 : inhibition at 25 µM at minimum 30%?
stdout: T

stdin: Evaluate O=C(Nc1nnc(NCCC(c2ccccc2)c2ccccc2)s1)c1ccc([N+](=O)[O-])o1 : inhibition at 25 µM at minimum 30%?
stdout: T

stdin: Evaluate CCCCCCCCCCCNc1nnc(NC(=O)c2cccc([N+](=O)[O-])c2)s1 : inhibition at 25 µM at minimum 30%?
stdout: T
